Data provenance: the Human Domainome abundance scans (Beltran et al. 2025)

B1: Segment polarity protein dishevelled homolog DVL-3, residues 2 to 81; numbered along this chain, Q92997 (parent)
chain: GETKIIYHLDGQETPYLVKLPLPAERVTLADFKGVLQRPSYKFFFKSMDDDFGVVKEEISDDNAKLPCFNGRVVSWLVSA

Variants of: B1
Run Description: abundance fitness (aPCA) (normalised: wild type 0, dead -1); higher = more abundant; growth selection in yeast, the domain comes from the species named
Cond: Homo sapiens
Measure: abundance fitness

A selection of reference data follows.
variant=G34N measure="abundance fitness" result=0.291
variant=V73Q measure="abundance fitness" result=-0.477
variant=D51V measure="abundance fitness" result=-0.113

Fill in the blank: the reported abundance fitness of "V73Y" is ____. -0.909

Fill in the blank: the reported abundance fitness of "A64C" is ____. -0.346

Fill in the blank: the reported abundance fitness of "V54D" is ____. 0.168

Fill in the blank: the reported abundance fitness of "L29M" is ____. -0.71

Fill in the blank: the reported abundance fitness of "N63Y" is ____. -0.33
